Assay: Pharmacokinetic testing after single intravenous administration in beagle dogs
Assay type: in vivo
Conditions: dog, single intravenous (S)-ketorolac 0.16 mg/kg, plasma analyte = label, mean ± standard deviation
Experimental Endpoint: AUC(0-inf) (ng·h/mL)
Expressed in ng·h/mL, but write only the number.

Recorded AUC(0-inf) (molecule O=C(c1ccccc1)c1ccc2n1CC[C@H]2C(=O)O [(R)-ketorolac] ): 79.2

For record O=C(c1ccccc1)c1ccc2n1CC[C@@H]2C(=O)O [(S)-ketorolac] the listed AUC(0-inf) is 950

---

Assay: Solubility of (S)-ketorolac in phosphate buffer solutions with different pH (Test Example 2)
Type: physicochemical
Conditions: 25 °C, aqueous buffer, thermodynamic from solid; phosphate buffer solution pH 6.5; read-out: Saturation solubility at 25° C.
Experimental Endpoint: solubility at 24 h (µg/mL)
Unit µg/mL implied. Number only.

O=C(c1ccccc1)c1ccc2n1CC[C@@H]2C(=O)O [(S)-ketorolac] yielded solubility at 24 h of 1860
